# IC50 listing for each entry below
# TGT: Mu-type opioid receptor
# EXPERIMENT DESCRIPTION: Inhibitory potency against Opioid receptor mu 1 was determined in electrically induced strips of guinea pig ileum (GPI)
Peptide text beside a SMILES is read from it.
MEASURED PARAMETER: IC50

molecule=CC1(C)SSC(C)(C)[C@@H](NC(=O)[C@@H](N)Cc2ccc(O)cc2)C(=O)NCC(=O)N[C@@H](Cc2ccc(Cl)cc2)C(=O)N[C@@H]1C(=O)N[C@@H](Cc1ccccc1)C(=O)O measured_value="420 nM"
molecule=CC1(C)SSC(C)(C)[C@@H](NC(=O)[C@@H](N)Cc2ccc(O)cc2)C(=O)NCC(=O)N[C@@H](Cc2ccc(Br)cc2)C(=O)N[C@@H]1C(=O)N[C@@H](Cc1ccccc1)C(=O)O measured_value="3400 nM"
molecule="CC1(C)SSC[C@@H](C(=O)N[C@@H](Cc2ccccc2)C(=O)O)NC(=O)[C@H](Cc2ccccc2)NC(=O)CNC(=O)[C@@H]1NC(=O)[C@@H](N)Cc1ccc(O)cc1 (HELM PEPTIDE1{Y.[CC(C)(S[*:3])[C@@H](N[*:1])C(=O)[*:2]].G.F.C.F}$PEPTIDE1,PEPTIDE1,2:R3-5:R3$$$V2.0)" measured_value="83 nM"
